Measured values drawn from the Human Domainome abundance scans (Beltran et al. 2025) for this set.

B1: POU domain, class 4, transcription factor 2, residues 256 to 327; numbered along this chain, Q12837 (parent)
chain: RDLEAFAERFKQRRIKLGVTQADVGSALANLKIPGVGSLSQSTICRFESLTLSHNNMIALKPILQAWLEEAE

Variants of: B1
protocolDetails: abundance fitness (aPCA) (normalised: wild type 0, dead -1); higher = more abundant; growth selection in yeast, the domain comes from the species named
conditionDescription: Homo sapiens
Mark met for reported abundance fitness of -0.3 or greater; mark not met for anything smaller.

Test whether the variant RDLEAFAERFKQRRIKLGVTQADVGSALANLKFPGVGSLSQSTICRFESLTLSHNNMIALKPILQAWLEEAE records abundance fitness of -0.3 or higher. met

Test whether the variant RDLEAFAERFKQRRIKLGVTQADVGSALANLKIPGVGSLSQSTICRFESLLLSHNNMIALKPILQAWLEEAE records abundance fitness of -0.3 or higher. met

Test whether the variant RDLEAFAERFKQRRIKLGVTQADVGSALANLKIPGVGSLSQSTISRFESLTLSHNNMIALKPILQAWLEEAE records abundance fitness of -0.3 or higher. met

Test whether the variant RDLEAFAERFKQRRIKLGVTQADVGSALANLKIPGVGQLSQSTICRFESLTLSHNNMIALKPILQAWLEEAE records abundance fitness of -0.3 or higher. met

Test whether the variant RDLEAFAERFKQRGIKLGVTQADVGSALANLKIPGVGSLSQSTICRFESLTLSHNNMIALKPILQAWLEEAE records abundance fitness of -0.3 or higher. not met

Test whether the variant RDLEAFAERFKQRRIKLGVTQADVGSALNNLKIPGVGSLSQSTICRFESLTLSHNNMIALKPILQAWLEEAE records abundance fitness of -0.3 or higher. met

Test whether the variant RDLEAFAERFKQRRIKLGVTQADVGSALANLKIPGVGSLSQSTICRFESLTLSHNNMIALKQILQAWLEEAE records abundance fitness of -0.3 or higher. not met

Test whether the variant RDLEAFAERFKQRRIKLGVTQADVGSALANLKIPGVGSLSQSTECRFESLTLSHNNMIALKPILQAWLEEAE records abundance fitness of -0.3 or higher. not met

Test whether the variant RDLEAFAERFKQRRIKLGVTQADVGSALQNLKIPGVGSLSQSTICRFESLTLSHNNMIALKPILQAWLEEAE records abundance fitness of -0.3 or higher. met

Test whether the variant RDLEAFAERFKQRRIKLGVTQADVGSALANLKIPGVGSLSKSTICRFESLTLSHNNMIALKPILQAWLEEAE records abundance fitness of -0.3 or higher. met

Test whether the variant RDLEAFAERFKQRRLKLGVTQADVGSALANLKIPGVGSLSQSTICRFESLTLSHNNMIALKPILQAWLEEAE records abundance fitness of -0.3 or higher. met

Test whether the variant RDLEAFAERFKQRRIKLGVTQADVGSALANLKIPGLGSLSQSTICRFESLTLSHNNMIALKPILQAWLEEAE records abundance fitness of -0.3 or higher. met

Test whether the variant RDLEAFAERFKQRRIKLGVTQADVGSALANLKIPGVGSPSQSTICRFESLTLSHNNMIALKPILQAWLEEAE records abundance fitness of -0.3 or higher. met

Test whether the variant RDLEAFAERFKQRRIKLGVTQADVGSALANLKIPGVGSLSQSTICRFESLTLSHNNMIALKPILQAWQEEAE records abundance fitness of -0.3 or higher. met

Test whether the variant RDLEAFAERFKQRRIKLGVTQADVGSALANLKIPGVGSLSQSTICRFESLTLSHNNMIALKPHLQAWLEEAE records abundance fitness of -0.3 or higher. met

Test whether the variant RDLEAFAERFKQRRIKLGVTQADVGSALANLKIPGVGSLSQSTICRFESLTLSHNNMIALIPILQAWLEEAE records abundance fitness of -0.3 or higher. not met

Test whether the variant RDLEAFAERFKQRRIKLGVTQADVGSALAILKIPGVGSLSQSTICRFESLTLSHNNMIALKPILQAWLEEAE records abundance fitness of -0.3 or higher. not met

Test whether the variant RDLEAFAERFKQRRIKLGVTQADVGSALANLKIPGVFSLSQSTICRFESLTLSHNNMIALKPILQAWLEEAE records abundance fitness of -0.3 or higher. not met

Test whether the variant RDLEAFAERFKQRRIKLGVTQADVGSALANLKIPGVGSLSQSTICRFESLALSHNNMIALKPILQAWLEEAE records abundance fitness of -0.3 or higher. met

Test whether the variant RDLEAFAERFKQRRIKLGVTQADVGSALANLKIPGVGSLSQSTICRQESLTLSHNNMIALKPILQAWLEEAE records abundance fitness of -0.3 or higher. not met

Test whether the variant RDLEAFAERFKQRRIKLGVTQADVGSALANLKIPGVGSLSQSTICRFESLTLSMNNMIALKPILQAWLEEAE records abundance fitness of -0.3 or higher. met

Test whether the variant RDLEAFAERFKQRRIKLGVTQADVGSALANLKLPGVGSLSQSTICRFESLTLSHNNMIALKPILQAWLEEAE records abundance fitness of -0.3 or higher. met
